Tested on: HCC 2998
METHOD: NCI tumour cell line growth inhibition, 48 h
Calls of active or inactive are those of the source. Rule as the data show it: active = GI50 up to about 1.1 µM and inactive = higher.
Classes used: 1 (active), -1 (inactive)

COMPOUND | CATEGORY_LABEL
CC(=O)O[C@H]1C(=O)O[C@@H]2C[C@H]3C(C)=CC(=O)[C@@H](O)[C@]3(C)[C@H]3[C@@]4(O)OC[C@]32[C@@H]1[C@@H](C)[C@H]4O | 1
COc1ccc(C2C=C(c3ccc4c(c3)OCO4)Oc3c2c(=O)oc2ccccc32)cc1OC (stereo unspecified) | 1
Cc1c(N)nc([C@H](CC(N)=O)NC[C@H](N)C(N)=O)nc1C(=O)N[C@H](C(=O)N[C@H](C)[C@@H](O)CC(=O)N[C@H](C(=O)NC(O[C@@H]1O[C@@H](C)[C@@H](N)[C@@H](O)[C@H]1O)C(O)c1nc(-c2nc(C(=O)NCCC[S+](C)C)cs2)cs1)[C@@H](C)O)[C@H](O[C@@H]1O[C@@H](CO)[C@@H](O)[C@H](O)[C@@H]1O[C@H]1O[C@H](CO)[C@@H](O)[C@H](OC(N)=O)[C@@H]1O)c1c[nH]cn1 (stereo partly specified) | -1
CS(=O)(=O)OCCCCOS(C)(=O)=O [BUSULFAN] | -1
Cc1ccc(C2=[N+]([O-])c3ccccc3C2=O)cc1 | -1
CN(C)c1ccc(/N=N\c2cccc3ccoc23)cc1 | -1
